# System: CHRC5 cell line
# protocol-notes: Reversal of sensitivity of multidrug resistant chinese hamster ovary cell line CHRC/5 expressed as concentration that restores 50% of cytotoxic activity of 5 ug/mL toward doxorubicin
# Assay type: functional, cell-based
# measurement-parameters: Cricetulus griseus, read-out: EC50
Could you please report measured log10(EC50) for the items listed next?
Please be aware that the numbers have been log10-transformed from EC50 in nM.

// log10(EC50) value for "COc1ccc2nc3c(C(=O)Nc4ccc(CCCCN(C)Cc5ccc(OC)c(OC)c5)cc4)cccc3c(O)c2c1" : 2.08

# compound "COc1ccc(CNCCCOc2ccc(NC(=O)c3cccc4c(=O)c5ccccc5[nH]c34)cc2)cc1OC" ; its log10(EC50) = 2.72

Value of log10(EC50) reported for the compound "COc1ccc(CCN(C)CCOc2ccc(NC(=O)c3cccc4c(=O)c5ccccc5sc34)cc2)cc1OC" is 1.95

Form field log10(EC50), entry "COc1ccc(CN(C)CCOc2ccc(NC(=O)c3cccc4c(O)c5ccccc5nc34)cc2)cc1OC" : 1.95

So, "COc1ccc(CN(C)CCCOc2ccc(NC(=O)c3cccc4c(O)c5ccccc5nc34)cc2)cc1OC" ? Its log10(EC50) was 1.56

Query "COc1cc(CCN(C)Cc2ccc(OC)c(OC)c2)ccc1NC(=O)c1cccc2c(O)c3cccc(F)c3nc12" yields log10(EC50) of 1.32

Briefly, log10(EC50) measured for "COc1ccccc1CN(C)CCOc1ccc(NC(=O)c2cccc3c(=O)c4ccccc4[nH]c23)cc1" : 2.71

// field: log10(EC50); key: "COc1cc2c(cc1OC)CN(CCc1cccc(NC(=O)c3cccc4c(O)c5cccc(OC)c5nc34)c1)CC2" ; value = 2.19

Reported log10(EC50) of "COc1ccc(CCN(C)CCCOc2ccc(NC(=O)c3cccc4c(=O)c5ccccc5[nH]c34)cc2)cc1OC" : 1.95

# compound "COc1ccc(CN(C)CCOc2ccc(NC(=O)c3cccc4c(=O)cc(-c5ccccc5)[nH]c34)cc2)cc1OC" ; its log10(EC50) = 2.52

Entry "COc1ccc(CCN(C)CCOc2ccc(NC(=O)c3cccc4c(=O)c5ccccc5oc34)cc2)cc1OC" , log10(EC50) reported as 2.26

Per the records, this compound ( "COc1ccc(CN(C)CCCc2cccc(NC(=O)c3cccc4c(O)c5cccc(OC)c5nc34)c2)cc1OC" ) has log10(EC50) equal to 1.65

Entry "COc1ccc(CN(C)CCCSc2ccc(NC(=O)c3cccc4c(O)c5ccccc5nc34)cc2)cc1OC" ; log10(EC50) = 1.65

Measured log10(EC50), "COc1ccc(CN(C)CCc2ccc(NC(=O)c3cccc4c(O)c5cccc(C)c5nc34)c(C)c2)cc1OC" : 1.90

Per the record, "COc1cc(OCCCN(C)Cc2ccc(OC)c(OC)c2)ccc1NC(=O)c1cccc2c(O)c3cccc(F)c3nc12" has log10(EC50) of 1.48

The value of log10(EC50) measured for the compound "COc1ccc(CN(C)CCc2ccc(NC(=O)c3cccc4c(O)c5ccccc5nc34)cc2)cc1OC" turned out to be 1.43

Given item "COc1ccc(CCN(C)CCOc2ccc(NC(=O)c3cccc4c3Oc3ccccc3O4)cc2)cc1OC" , the value recorded as its log10(EC50) is 2.66

Briefly, log10(EC50) measured for "COc1cc(CCCN(C)Cc2ccc(OC)c(OC)c2)ccc1NC(=O)c1cccc2c(O)c3cccc(OC)c3nc12" : 1.57

For this compound ( "COc1ccc(CN(C)C/C=C/c2ccc(NC(=O)c3cccc4c(O)c5ccccc5nc34)cc2)cc1OC" ), measured log10(EC50) is 2.43

Short answer for "COc1ccc(CN(C)CCCc2ccc(NC(=O)c3cccc4c(O)c5ccccc5nc34)cc2)cc1OC" : log10(EC50) was 1.78

Record "COc1cc2c(cc1OC)CN(CCc1ccccc1NC(=O)c1cccc3c(O)c4cccc(OC)c4nc13)CC2" , field log10(EC50): 2.48

In plain terms, "CN(CCOc1ccc(NC(=O)c2cccc3c(=O)c4ccccc4[nH]c23)cc1)Cc1ccc2c(c1)OCO2" has a documented log10(EC50) of 2.74

Sure, the documented log10(EC50) for "COc1ccc(CN(C)CCc2ccc(NC(=O)c3cccc4c(O)c5cccc(OC)c5nc34)cc2)cc1OC" is 1.32

The reported value for "COc1ccc(CCN(C)CCOc2ccc(NC(=O)c3cccc4c3C(=O)c3ccccc3C4=O)cc2)cc1OC" in terms of log10(EC50) is 3.18

Briefly, log10(EC50) measured for "COc1ccc(CN(C)CCOc2ccc(NC(=O)c3cccc4nc5ccccc5nc34)cc2)cc1OC" : 2.52

"COc1ccc(CN(C)C/C=C/Cc2ccc(NC(=O)c3cccc4c(O)c5ccccc5nc34)cc2)cc1OC" yielded log10(EC50) of 2.18

Lab note: "O=C(Nc1ccc(OCCCN2CCc3ccccc3C2)cc1)c1cccc2c(=O)c3ccccc3[nH]c12" gave log10(EC50) of 2.32

The reported log10(EC50) of the compound "COc1cc2c(cc1OC)CN(CCc1ccc(NC(=O)c3cccc4c(O)c5cccc(F)c5nc34)cc1)CC2" was 1.52

// log10(EC50) value for "COc1ccc(CCN(C)CCOc2ccc(NC(=O)c3cccc4c(Cl)c5ccccc5nc34)cc2)cc1OC" : 2.82

Notebook: "Cc1ccc(CN(C)CCOc2ccc(NC(=O)c3cccc4c(=O)c5ccccc5[nH]c34)cc2)cc1" , log10(EC50) read as 2.38

Consider "COc1ccc(CN(C)CCOc2ccc(NC(=O)c3cccc4c(=O)c5ccccc5[nH]c34)cc2)cc1" . Its measured log10(EC50) is 2.81

The measured log10(EC50) associated with "COc1ccc(CN(C)CCc2ccc(NC(=O)c3cccc4c(=O)c5ccccc5n(C)c34)cc2)cc1OC" reads 2.32
